# MEASURED_TARGET: human GPBAR1 receptor (Homo sapiens (Human), UniProt Q8TDU6)
# Sequence (Q8TDU6 whole entry): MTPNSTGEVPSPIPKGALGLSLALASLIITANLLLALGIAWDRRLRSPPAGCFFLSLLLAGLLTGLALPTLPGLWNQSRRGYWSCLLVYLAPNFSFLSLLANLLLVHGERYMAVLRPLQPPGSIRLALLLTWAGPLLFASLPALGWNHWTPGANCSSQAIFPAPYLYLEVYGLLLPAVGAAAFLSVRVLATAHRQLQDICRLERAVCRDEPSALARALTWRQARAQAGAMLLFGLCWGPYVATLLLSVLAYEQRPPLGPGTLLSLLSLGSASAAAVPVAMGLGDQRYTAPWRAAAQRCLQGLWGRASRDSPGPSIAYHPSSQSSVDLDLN
# ASSAY_OVERVIEW: functional cAMP assay in CHO-dhfr(minus) cells expressing human GPBAR1 receptors
# CONDITION: CHO-dhfr(minus) cells expressing human GPBAR1, 30 min at 30° C.
# Protocol: The final clone was verified by DNA sequence analysis. The plasmid was transfected into CHO cells deficient in dihydrofolate reductase activity (CHO-dhfr-) using Lipofectamine plus (Invitrogen). Clones were isolated in limited dilution conditions and identified by activities in the cAMP assay using lithocholic acid as agonist. EC50 values were determined using Activity Base analysis (ID Business Solution, Limited). […]
QUANTITY_MEASURED: EC50 (nM)

// below: answered compounds
COMPOUND | EC50 [nM]
COC(=O)c1cc(C(=O)N(C)c2cnccc2-c2ccccc2Cl)cc(C(F)(F)F)c1 [Example 75] | 452
COc1cccc(-c2ccncc2N(C)C(=O)c2cc(C(F)(F)F)cc(C(F)(F)F)c2)c1F [Example 62] | 337
CS(=O)(=O)c1cc(C(=O)N(Cc2ncco2)c2cnccc2-c2ccccc2Cl)cc(C(F)(F)F)c1 [Example 294] | 42
Cc1ccccc1-c1ccncc1N(C)C(=O)c1cc(NCCO)cc(C(F)(F)F)c1 [Example 271] | 3130
Cc1ccccc1-c1ccncc1N(C)C(=O)c1cc(Cl)cc(C(F)(F)F)c1 [Example 109] | 22
COc1cc(F)ccc1-c1ccncc1N(C)C(=O)c1cc(SCCNS(C)(=O)=O)cc(C(F)(F)F)c1 [Example 262] | 231
COc1cc(F)ccc1-c1cc(C)ncc1N(C)C(=O)c1cc(C(F)(F)F)cc(S(C)(=O)=O)c1 [Example 202] | 157
COc1ccc(F)c(-c2ccncc2N(C)C(=O)c2cc(C(F)(F)F)cc(C(F)(F)F)c2)c1 [Example 63] | 23

1 = COc1cc(F)ccc1-c1cc(C)ncc1N(C)C(=O)c1cc(Cl)cc(S(C)(=O)=O)c1 [Example 301]
2 = COC(=O)CN(C(=O)c1cc(C(F)(F)F)nc(C(F)(F)F)c1)c1cnccc1-c1c(F)cccc1OC [Example 195]
3 = CN(C(=O)c1cc(C(F)(F)F)cc(S(C)(=O)=O)c1)c1cnccc1-c1cccnc1Cl [Example 313]
4 = Cc1cc(F)ccc1-c1cc(Cl)ncc1N(C)C(=O)c1cc(C(F)(F)F)cc(C(F)(F)F)c1 [Example 72]
5 = Cc1ncccc1-c1ccncc1N(C)C(=O)c1cc(C(F)(F)F)cc(C(F)(F)F)c1 [Example 33]
Order the entries by their reported EC50, beginning at the minimum. Answer by writing out the labels in the requested order. 2, 1, 5, 4, 3
